Biological target: T1, cynomolgus SIRP-α (cynomolgus monkey, UniProt Q5TFQ8 30-148 (human entry), limits assumed)
T1 construct: also called cyno1
T1 chain: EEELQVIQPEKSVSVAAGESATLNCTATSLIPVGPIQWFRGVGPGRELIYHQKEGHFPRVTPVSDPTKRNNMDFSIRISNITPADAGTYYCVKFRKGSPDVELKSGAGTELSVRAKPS
Assay: SPR Koff +/-
ASSAY ENDPOINT: binding result

Sample records with binding result:
[
  {
    "BINDER": "antibody 173 (antibody, V domains shown, also called S173) VH: DVQLVESGGGVVRPGESLRLSCAASGFAFSDHDMSWVRQGPGEGLEWVAGISLRGGVTWYADSVKGRFTISRDNSKNTLYLRLFSLRTEDTAIYYCARESWNTFFDYWGLGTLVTVSS VL: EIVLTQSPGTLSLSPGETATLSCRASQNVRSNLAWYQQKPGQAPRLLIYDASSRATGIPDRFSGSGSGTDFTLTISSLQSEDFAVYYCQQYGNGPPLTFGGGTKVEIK",
    "binding result": "no binding"
  },
  {
    "BINDER": "antibody 123 (antibody, V domains shown, also called S123) VH: VQLVESGGGLVQPGGSLRLSCTASGFTFRNYGMSWVRQAPGEGLEWVSASSGSGSTYYTDSVKGRFTISRDNSKNTLYLQMNSLRAEDTAIYYCAKVTWNNFFDYWGLGTLVTVSS VL: EIVLTQSPGTLSVSPGERVTLTCRASQGIAGKIAWYQQKPGQAPRLLIYDASSRATGIPGRFSGSGSGTEFTLTITSLQSEDFAVYYCQQHYDWSPLTFGGGTKVEIK",
    "binding result": "binds"
  },
  {
    "BINDER": "antibody 209 (antibody, V domains shown, also called S209) VH: DVQLVESGGAVVRPGESLRLSCKASGFTFTNFAMSWVRQAPGEGLEWVSGISGSDDTTYYADSVKGRFTISRDNSESTLYLQMNSLRAEDTAVYYCVKDSTVSWNTFFDYWGLGTLVTVSS VL: ALTQPASVSANLGGTVKITCSGGYGSDDGSSSYYGWYQQKSPGSAPVILIYWDDKRPSDIPSRFSGSTSGSTTTLTITGVQAEDEAVYFCGTYDTSSGAIFGAGTTLTVL",
    "binding result": "no binding"
  },
  {
    "BINDER": "antibody 45 (antibody, V domains shown, also called S45; AB45) VH: AVTLDESGGGLQTPGGALSLVCKASGFTFSSYAMGWVRQAPGKGLEWVAGIDDDGSTANYGPAVKGRATISRDNGQSTVRLQLNNPRAEDSGTYFCAKASVTGWSAHISGRLDTWGHGTEVIVSS VL: ALTQPASVSANPGETVKITCSGGGIYYYGWYQQKSPGSAPVTLIYENDKRPSDIPSRFSGSTSGSTNTFTITGVQAEDEAVYYCGGYDSNTTSGIFGAGTTLTVL",
    "binding result": "no binding"
  }
]

Q. Which binding result value is on record for antibody 116 (antibody, V domains shown, also called S116) VH: VQLVESGGGVVRPGESLRLSCAASGFSFSSYAMNWVRQAPGEGLEWVSRINSGGGGTDYAESVKGRFTISRDNSENTLYLQMNSLRAEDTAVYYCAKQYDWNSFFDYWGLGALVTVSS VL: ETVLTQSPATLSVSPGERATLSCRASQTVGSKLAWHQQKPGQAPRLLIYDATNRATGISDRFSGSRSGTDFTLTISSLQTEDSAVYYCQQYYYWPPYRFGGGTKVEIK ?
A. binds

Where do the numbers come from? From patent US20210363269A1.
